Reference for the values: a melting point compilation (Tetko et al.; mined from patent text by program, amines drawn as free bases though some values may be those of a salt)

Please go through the items and note down their melting point.
Numbers only, in °C.

Would you be so kind as to report melting point for each listed record?
1. COc1ccc(CN(C)CCCc2ccc(NC(=O)c3cccc4c(=O)c5cccc([N+](=O)[O-])c5[nH]c34)cc2)cc1OC
2. Cc1cc(-c2ccc(C(F)(F)F)cc2)nc(-c2cccc(-c3cccc(S(N)(=O)=O)c3)c2)n1

Marked response:
1: 192; 2: 224

----------
Please go through the items and note down their melting point.

Would you be so kind as to report melting point for each listed record?
1. CCOC(=O)C(C)c1cc(C(C)(C)C)c(O)c(C(C)(C)C)c1 (stereo not given)
2. CCOC(=O)c1[nH]c2cc(Br)c(Cl)cc2c1-c1ccccc1
3. CCc1oc2ccccc2c1C(=O)c1ccc(OC(C)C(=O)O)cc1 (stereo not given)
4. CCOC(=O)c1cnc2nn(C)cc2c1N1CCN(C)CC1
5. Clc1c(Cl)c(Cl)c(CI)c(Cl)c1Cl

Marked response:
["54 to 56 °C", "205 to 206 °C", "182 to 184 °C", "142 to 143 °C", "138 to 140 °C"]
